target: EGFR (d746-750 C797S) (Homo sapiens, UniProt P00533, C797S/DEL746-750); construct: purchased signalchem; assay: Inhibition of EGFR (d746-750 C797S) biochemical enzymatic activity (HTRF); details: EGFR Del19-C797S, 1 mM ATP, 1 h, room temperature, read-out: IC50 (nM) @Del19-C797S
Sequence (P00533 with tags, fused parts or gaps DEL746-750/C797S limits assumed): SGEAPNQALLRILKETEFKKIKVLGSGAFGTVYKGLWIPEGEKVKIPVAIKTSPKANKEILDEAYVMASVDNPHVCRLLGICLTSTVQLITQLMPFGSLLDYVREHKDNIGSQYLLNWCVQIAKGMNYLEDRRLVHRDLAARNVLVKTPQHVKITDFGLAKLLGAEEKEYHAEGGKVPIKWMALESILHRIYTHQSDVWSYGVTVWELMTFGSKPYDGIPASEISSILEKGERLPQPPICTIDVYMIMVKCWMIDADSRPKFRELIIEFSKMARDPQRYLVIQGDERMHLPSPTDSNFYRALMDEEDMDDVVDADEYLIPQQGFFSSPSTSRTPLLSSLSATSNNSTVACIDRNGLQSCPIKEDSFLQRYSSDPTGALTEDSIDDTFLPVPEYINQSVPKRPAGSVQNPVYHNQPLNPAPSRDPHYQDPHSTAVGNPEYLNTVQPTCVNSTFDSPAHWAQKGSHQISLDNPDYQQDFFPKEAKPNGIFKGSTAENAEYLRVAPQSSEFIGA
PROPERTY MEASURED: log10(IC50) (log10 of the value in nM)
Values below are the log10 of the recorded IC50, with nM as the unit.

Completed entries (count: 5):
| COMPOUND | log10(IC50) |
| --- | --- |
| CN(C)CCCN(C)c1ccc2nc3n(c2c1)C12CCC(CN(CCOc4c(cnn4C)-c4cc(cn(C)c4=O)C(=O)N3)C1)C2 (single isomer, unassigned) [Example A89A] | 2.76 |
| CN1CCC2(CC1)CN(c1ccc3nc4n(c3c1)C13CCC(CN(CCOc5c(cnn5C)-c5cc(cn(C)c5=O)C(=O)N4)C1)C3)C2 (single isomer, unassigned) [Example A77A] | 2.67 |
| C[C@@H]1CCCOc2c(cnn2C)-c2cc(cn(C)c2=O)C(=O)Nc2nc3ccc(N4CC5(CN(C)C5)C4)cc3n2C1 [Example A40] | 0.36 |
| CCN1CCN(c2ccc3nc4n(c3c2)C23CCC(CN(CCOc5c(cnn5C)-c5cc(cn(C)c5=O)C(=O)N4)C2)C3)CC1 (single isomer, unassigned) [Example A107B] | -0.10 |
| CN1CCC2(CC1)CCN(c1ccc3nc4n(c3c1)C13CCC(CN(CCOc5c(cnn5C)-c5cc(cn(C)c5=O)C(=O)N4)C1)C3)C2 (single isomer, unassigned) [Example A88B] | 0.34 |

Please look at the following compound next.
Sample CN(C)CCCN(C)c1ccc2nc3n(c2c1)C12CCC(CC1)CN(CCOc1c(cnn1C)-c1cc(cn(C)c1=O)C(=O)N3)C2 [Example A125] — what was its log10(IC50)?
1.40
